These data points were gathered from PubChem BioAssay (NCI).

The following compounds are shown together with reported GI50 values.
tested on: MOLT-4 leukemia; test: NCI tumour cell line growth inhibition, 48 h
Quantity name: GI50

- Compound: "Fc1ccc2[nH]cc(SSc3c[nH]c4ccc(F)cc34)c2c1"
  Quantity name: "GI50"
  Reported value: "2710 nM"
- Compound: "Cc1cc2cn3c4cccnc4[nH]c(=O)c3c2cc1C"
  Quantity name: "GI50"
  Reported value: "2250 nM"
- Compound: "C[C@H](N)C(=O)N1C[C@H](CCCB(O)O)[C@](N)(C(=O)O)C1"
  Quantity name: "GI50"
  Reported value: "> 100000 nM"
- Compound: "CCOC(=O)c1cc(C(=O)c2cc(OC)c(OC)c(OC)c2)n2ccccc12"
  Quantity name: "GI50"
  Reported value: "182 nM"
- Compound: "CNCCCNCCCN1C(=O)c2ccc3c4c(ccc(c24)C1=O)C(=O)N(CCCNCc1ccccc1OC)C3=O"
  Quantity name: "GI50"
  Reported value: "534 nM"
- Compound: "C=C1C[C@@]2(C)C(CC[C@]3(C)C2CC=C2C4CC(C)(C)C[C@@H](OC(=O)/C(C)=C\\C)[C@]4(C(=O)O)CC[C@]23C)C(C)(C)C1=O (some centres undefined)"
  Quantity name: "GI50"
  Reported value: "2910 nM"
- Compound: "COc1ccccc1/C=C/C(=O)/C=C/c1ccccc1OC"
  Quantity name: "GI50"
  Reported value: "2400 nM"
- Compound: "C1COCCOCCOCCOCCO1.CC(=O)[CH-]C(C)=O.CC(=O)[CH-]C(C)=O.CC(=O)[CH-]C(C)=O.[V]"
  Quantity name: "GI50"
  Reported value: "20600 nM"
- Compound: "NC(=O)c1ccc2nc3c(n2c1)C(=O)C(=O)c1ccccc1-3"
  Quantity name: "GI50"
  Reported value: "1020 nM"

* * *

The following compounds are shown together with reported TGI values.
tested on: HT29 colon; test: NCI tumour cell line growth inhibition, 48 h
Quantity name: TGI

- Compound: "c1ccc2c(c1)CC1COc3ccccc3C1O2 (stereo unspecified)"
  Reported value: "> 100 µM"
- Compound: "O=c1c2cccnc2ncn1CCN1CCCC1"
  Reported value: "> 100 µM"
- Compound: "N#C/C(=C\\c1ccc(Br)cc1)n1nnc2ccccc21"
  Reported value: "2.25 µM"
- Compound: "COc1ccc2cc(C(=O)NCCCNC(=O)c3ccc4cc(OC)ccc4c3)ccc2c1"
  Reported value: "> 100 µM"
- Compound: "CCOC(=O)Cn1c(=O)c2cc(-c3ccccc3)cc3c(Cl)nc4c(OC)c(OC)cc1c4c32"
  Reported value: "48.1 µM"
- Compound: "c1ccc(N=C2SC3=NCCN3C2=Nc2ccccc2)cc1"
  Reported value: "41.3 µM"
- Compound: "Cn1c(=O)c2c(nc(Nc3ccc(Cl)cc3)n3c(=O)n(-c4ccccc4)c(=O)n23)n(C)c1=O"
  Reported value: "> 100 µM"
- Compound: "O=C1C(NCCN2CCOCC2)=C(Cl)C(=O)c2ncccc21"
  Reported value: "2.95 µM"
- Compound: "N#Cc1nc(CCC(c2nc(C#N)c(N)o2)N2C(=O)c3ccccc3C2=O)oc1N (stereo unspecified)"
  Reported value: "> 100 µM"
- Compound: "Oc1ccccc1-c1n[nH]c(=S)n1/N=C/c1ccc(-c2ccc(Br)cc2)o1"
  Reported value: "> 100 µM"
- Compound: "COc1ccc(-c2csc(NC(=O)c3cc(O)c(O)c(O)c3)n2)cc1"
  Reported value: "> 33.3 µM"
- Compound: "O=C(c1ccc(Cl)cc1)c1ccc(OCCSCCCCCCCCCCSCCOc2ccc(C(=O)c3ccc(Cl)cc3)cc2)cc1"
  Reported value: "> 100 µM"
- Compound: "COC1=C(Br)C(=O)C2=C(C1=O)C1C3=C(C(=O)C=CC3=O)C2c2ccccc21 (stereo unspecified)"
  Reported value: "> 100 µM"
- Compound: "NC(=O)c1ccc2nc3c(n2c1)C(=O)C(=O)c1ccccc1-3"
  Reported value: "6.01 µM"
- Compound: "N#CC1C2CCC3(CC2CCN1C(=O)c1ccccc1)OCCO3 (stereo unspecified)"
  Reported value: "> 100 µM"
- Compound: "c1ccc(C(CCN2CC3CCC(CC3)C2)c2ccccc2)cc1"
  Reported value: "48.4 µM"
- Compound: "Cc1ccc(S(=O)(=O)N2CCNCCN(S(=O)(=O)c3ccc(C)cc3)CCN(S(=O)(=O)c3ccc(C)cc3)CC2)cc1"
  Reported value: "> 100 µM"
- Compound: "CCCN(CCSSCCNc1nc(N(C)O)nc(N(C)O)n1)c1nc(N(C)O)nc(N(C)O)n1"
  Reported value: "> 100 µM"
- Compound: "CC(C)Nc1ncc2cc(Oc3ccc(F)cc3F)c(=O)n(C)c2n1"
  Reported value: "> 25 µM"
- Compound: "COc1cc2c(cc1OC)-c1cc3cc(OC)c(OC)cc3c(=O)n1CC2"
  Reported value: "> 100 µM"
- Compound: "Oc1cccc(-c2cn3cc(C(F)(F)F)ccc3n2)c1"
  Reported value: "60.8 µM"
